test system: human serum albumin and alpha-1-acid glycoprotein; experiment: Plasma protein binding (TRANSIL XL PPB test); type: in vitro ADME; settings: ± SD, fraction bound to plasma proteins, read-out: PPB fb (converted)

[
  {
    "compound": "O=C(NC(c1ccccc1)C1CCCCN1)c1cccc(C(F)(F)F)c1Cl (stereo not shown)",
    "fraction unbound": 0.013
  }
]

====

Assay: Pharmacokinetic study of SSR504734 in mice (serum and tissue concentrations by LC-MS/MS, noncompartmental analysis)
Type: in vivo
Conditions: mouse, ip, serum, single 30 mg/kg i.p.
Protocol: SSR504734 was administered i.p. at the dose of 30 mg/kg, and mice were sacrificed by decapitation at 5, 15, 30, 60, 120, 240, and 480 min after dosing. […] Serum and tissue concentrations of SSR504734 in mice were quantified by a liquid chromatography tandem mass spectrometry (LC-MS/MS) method. […] The selected reaction monitoring (SRM) for the transitions was m/z 397.2 → 207.0 and m/z 397.2 → 174.2 (quantifier and qualifier) for SSR504734 and m/z 279 → 181 for IS. […]
outcomeMeasure: half-life (h)

[
  {
    "molecule": "O=C(NC(c1ccccc1)C1CCCCN1)c1cccc(C(F)(F)F)c1Cl (stereo not shown) [SSR504734]",
    "outcomeMeasure": "half-life",
    "outputUnit": "h",
    "experimentalValue": 1.65
  }
]
